Tested on: xanthine oxidase
Experiment: Half life for the nitro group loss in xanthine oxidase enzyme assay in 5%DMF at 0.1 mM
metric.name: half-life at 100 µM (h)
Respond numerically; units are h and should not be typed.

Data point: COCC(O)Cn1ccnc1[N+](=O)[O-] (stereo unspecified) ; half-life at 100 µM = 1

====

Tested on: xanthine oxidase
Assay: Half life for the nitro group loss in xanthine oxidase enzyme assay in 0.2%DMF at 0.1 mM
Assay type: ADME
metric.name: half-life at 100 µM

Data point: Cc1ncc([N+](=O)[O-])n1CCO ; half-life at 100 µM = > 20 h
